All figures here come from patent US20180057604A1.

Molecular target: T1, cyno TfR extracellular domain (analogous construct to human TfR ecd) (cynomolgus monkey, UniProt Q5RDH6 87-760 (Pongo abelii entry))
T1 construct: also called cynoTfR ecd
T1 chain: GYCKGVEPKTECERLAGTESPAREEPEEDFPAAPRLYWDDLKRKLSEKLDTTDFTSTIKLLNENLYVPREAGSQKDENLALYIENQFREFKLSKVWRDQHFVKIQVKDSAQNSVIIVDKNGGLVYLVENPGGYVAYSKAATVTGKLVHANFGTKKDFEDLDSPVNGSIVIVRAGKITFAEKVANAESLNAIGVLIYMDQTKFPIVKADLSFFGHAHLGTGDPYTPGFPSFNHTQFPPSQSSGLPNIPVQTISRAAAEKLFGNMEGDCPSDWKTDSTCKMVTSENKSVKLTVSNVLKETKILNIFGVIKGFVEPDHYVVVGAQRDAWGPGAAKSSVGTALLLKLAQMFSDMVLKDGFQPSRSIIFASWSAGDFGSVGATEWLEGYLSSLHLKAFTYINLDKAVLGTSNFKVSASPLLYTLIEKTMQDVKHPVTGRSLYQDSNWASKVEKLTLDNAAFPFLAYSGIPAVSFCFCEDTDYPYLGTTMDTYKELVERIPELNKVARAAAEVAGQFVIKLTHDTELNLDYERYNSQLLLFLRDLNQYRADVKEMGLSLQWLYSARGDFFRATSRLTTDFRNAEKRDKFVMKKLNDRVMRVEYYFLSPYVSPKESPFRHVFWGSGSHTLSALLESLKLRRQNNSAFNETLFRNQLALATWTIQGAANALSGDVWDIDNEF
Assay: ELISA, TfR-coated plate, IgG in culture supernatant;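 note: human or cynomolgus TfR coated at 2 µg/mL, supernatant IgG titrated in 1:5 steps for 1 h, bound antibody read with HRP anti-human Fcγ and TMB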
readout_name: EC50 (ng/mL)
Report only the number, with the unit ng/mL understood.

Examples from the recorded data:
binder: hu15G11.v5 IgG Ala variant S31A (HVR-L1) (antibody, V domains shown, IgG in cell culture supernatant; also called S31A (light chain)) VH: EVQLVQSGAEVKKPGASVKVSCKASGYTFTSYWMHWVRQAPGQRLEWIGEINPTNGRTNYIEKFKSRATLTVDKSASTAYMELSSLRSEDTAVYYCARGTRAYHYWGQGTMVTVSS VL: DIQMTQSPSSLSASVGDRVTITCRASDNLYANLAWYQQKPGKSPKLLVYDATNLADGVPSRFSGSGSGTDYTLTISSLQPEDFATYYCQHFWGTPLTFGQGTKVEIK
EC50 / ng/mL: 0.7

binder: hu15G11.v5 IgG Ala variant N53A (HVR-L2) (antibody, V domains shown, IgG in cell culture supernatant) VH: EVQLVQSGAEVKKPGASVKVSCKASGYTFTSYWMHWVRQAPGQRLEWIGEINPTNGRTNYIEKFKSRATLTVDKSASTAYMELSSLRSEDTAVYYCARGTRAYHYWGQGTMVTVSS VL: DIQMTQSPSSLSASVGDRVTITCRASDNLYSNLAWYQQKPGKSPKLLVYDATALADGVPSRFSGSGSGTDYTLTISSLQPEDFATYYCQHFWGTPLTFGQGTKVEIK
EC50 / ng/mL: 0.6

binder: hu15G11.v5 IgG Ala variant S65A (HVR-H2) (antibody, name in Kabat numbering, V domains shown, IgG in cell culture supernatant; Kabat numbers after 52a lie one below the linear count) VH: EVQLVQSGAEVKKPGASVKVSCKASGYTFTSYWMHWVRQAPGQRLEWIGEINPTNGRTNYIEKFKARATLTVDKSASTAYMELSSLRSEDTAVYYCARGTRAYHYWGQGTMVTVSS VL: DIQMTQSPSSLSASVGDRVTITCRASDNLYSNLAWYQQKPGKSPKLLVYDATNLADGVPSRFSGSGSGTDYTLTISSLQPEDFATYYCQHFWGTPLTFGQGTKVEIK
EC50 / ng/mL: 0.7

binder: hu15G11.v5 IgG Ala variant R24A (HVR-L1) (antibody, V domains shown, IgG in cell culture supernatant) VH: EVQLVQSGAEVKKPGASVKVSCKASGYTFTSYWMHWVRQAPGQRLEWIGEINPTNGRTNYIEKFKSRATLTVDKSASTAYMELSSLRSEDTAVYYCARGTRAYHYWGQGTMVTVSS VL: DIQMTQSPSSLSASVGDRVTITCAASDNLYSNLAWYQQKPGKSPKLLVYDATNLADGVPSRFSGSGSGTDYTLTISSLQPEDFATYYCQHFWGTPLTFGQGTKVEIK
EC50 / ng/mL: 0.4

Now, please, on to the next binder.
# get_value(readout='EC50', item= hu15G11.v5 IgG Ala variant L54A (HVR-L2) (antibody, V domains shown, IgG in cell culture supernatant) VH: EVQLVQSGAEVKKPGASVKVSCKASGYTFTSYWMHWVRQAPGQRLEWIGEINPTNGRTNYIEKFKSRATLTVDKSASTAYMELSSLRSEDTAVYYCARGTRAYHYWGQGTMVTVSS VL: DIQMTQSPSSLSASVGDRVTITCRASDNLYSNLAWYQQKPGKSPKLLVYDATNAADGVPSRFSGSGSGTDYTLTISSLQPEDFATYYCQHFWGTPLTFGQGTKVEIK )
0.5
